Source listed as paper PMC11668715.

- System: MRSA ATCC 43,300
- ASSAY PROCEDURE: Checkerboard dilution assay
- Assay type: cell-based, S. aureus
- Parameters: unit not given beside the values
- MEASUREMENT PARAMETERS: drug alone, checkerboard, MRSA ATCC 43,300
MEASUREMENT TYPE: MICalone
Give a plain numeric answer without units written out.

MICalone measured on NC[C@H]1O[C@H](O[C@H]2[C@H](O)[C@@H](O[C@H]3O[C@H](CO)[C@@H](O)[C@H](N)[C@H]3O)[C@H](N)C[C@@H]2N)[C@H](O)[C@@H](O)[C@@H]1O [KANA, kanamycin] = 256

MICalone measured on C[C@H]1COc2c(N3CCN(C)CC3)c(F)cc3c(=O)c(C(=O)O)cn1c23 [LEV, levofloxacin] = 0.125

MICalone measured on CC(=O)NC[C@H]1CN(c2ccc(N3CCOCC3)c(F)c2)C(=O)O1 [LZD, linezolid] = 2

MICalone measured on CC1(C)S[C@@H]2[C@H](NC(=O)[C@H](N)c3ccccc3)C(=O)N2[C@H]1C(=O)O [AMP, ampicillin] = 16

MICalone measured on CO/N=C(\C(=O)N[C@@H]1C(=O)N2C(C(=O)O)=C(CSc3nc(=O)c(=O)[nH]n3C)CS[C@H]12)c1csc(N)n1 [CRO, ceftriaxone] = 32

MICalone measured on C[C@@H]1O[C@@H]1P(=O)(O)O [FOS, fosfomycin] = 32

MICalone measured on CN[C@H](CC(C)C)C(=O)N[C@H]1C(=O)N[C@@H](CC(N)=O)C(=O)N[C@H]2C(=O)N[C@H]3C(=O)N[C@H](C(=O)N[C@H](C(=O)O)c4cc(O)cc(O)c4-c4cc3ccc4O)[C@H](O)c3ccc(c(Cl)c3)Oc3cc2cc(c3O[C@@H]2O[C@H](CO)[C@@H](O)[C@H](O)[C@H]2O[C@H]2C[C@](C)(N)[C@H](O)[C@H](C)O2)Oc2ccc(cc2Cl)[C@H]1O [VAN, vancomycin] = 1

---

- System: MRSA ATCC 43,300
- ASSAY PROCEDURE: Checkerboard dilution assay
- Assay type: cell-based, S. aureus
- Design: unit not given beside the values
- MEASUREMENT PARAMETERS: drug alone, checkerboard, MRSA ATCC 43,300
For each of the compounds below, state its MICalone.
Give a plain numeric answer without units written out.

MICalone measured on C[C@H]1c2cccc(O)c2C(=O)C2=C(O)[C@]3(O)C(=O)C(C(N)=O)=C(O)[C@@H](N(C)C)[C@@H]3[C@@H](O)[C@@H]21 = 0.25

MICalone measured on CN[C@@H]1[C@H](O)[C@H](NC)[C@H]2O[C@@]3(O)C(=O)C[C@@H](C)O[C@H]3O[C@@H]2[C@H]1O = 128

MICalone measured on CN(C)[C@@H]1C(O)=C(C(N)=O)C(=O)[C@@]2(O)C(O)=C3C(=O)c4c(O)cccc4[C@@](C)(O)[C@H]3C[C@@H]12 = 2

MICalone measured on CCCCCCCCCC(=O)N[C@@H](Cc1c[nH]c2ccccc12)C(=O)N[C@H](CC(N)=O)C(=O)N[C@@H](CC(=O)O)C(=O)N[C@@H]1C(=O)NCC(=O)N[C@@H](CCCN)C(=O)N[C@@H](CC(=O)O)C(=O)N[C@H](C)C(=O)N[C@@H](CC(=O)O)C(=O)NCC(=O)N[C@H](CO)C(=O)N[C@@H]([C@H](C)CC(=O)O)C(=O)N[C@@H](CC(=O)c2ccccc2N)C(=O)O[C@@H]1C = 0.25

MICalone measured on Cc1nnc(SCC2=C(C(=O)O)N3C(=O)[C@@H](NC(=O)Cn4cnnn4)[C@H]3SC2)s1 = 16

MICalone measured on NC[C@H]1O[C@H](O[C@H]2[C@H](O)[C@@H](O[C@H]3O[C@H](CO)[C@@H](O)[C@H](N)[C@H]3O)[C@H](N)C[C@@H]2N)[C@H](N)C[C@@H]1O = 64

MICalone measured on CO/N=C(\C(=O)N[C@@H]1C(=O)N2C(C(=O)O)=C(COC(C)=O)CS[C@H]12)c1csc(N)n1 = 2

MICalone measured on CC(C)(O/N=C(\C(=O)N[C@@H]1C(=O)N2C(C(=O)[O-])=C(C[n+]3ccccc3)CS[C@H]12)c1csc(N)n1)C(=O)O = 32

MICalone measured on NCC[C@H](O)C(=O)N[C@@H]1C[C@H](N)[C@@H](O[C@H]2O[C@H](CN)[C@@H](O)[C@H](O)[C@H]2O)[C@H](O)[C@H]1O[C@H]1O[C@H](CO)[C@@H](O)[C@H](N)[C@H]1O = 64

MICalone measured on Cc1onc(-c2ccccc2)c1C(=O)N[C@@H]1C(=O)N2[C@@H]1SC(C)(C)[C@@H]2C(=O)O = 16
